target: Heme-regulated inhibitor (HRI) (Homo sapiens); construct: gene EIF2AK1; N-terminally His-tagged human HRI, dephosphorylated, from E. coli; assay: ADP-GLO kinase assay with eIF2α substrate; supported by nanoDSF (+[…] °C at […]) and Phos-tag gels; assay type: biochemical
Sequence (Q9BQI3 whole entry): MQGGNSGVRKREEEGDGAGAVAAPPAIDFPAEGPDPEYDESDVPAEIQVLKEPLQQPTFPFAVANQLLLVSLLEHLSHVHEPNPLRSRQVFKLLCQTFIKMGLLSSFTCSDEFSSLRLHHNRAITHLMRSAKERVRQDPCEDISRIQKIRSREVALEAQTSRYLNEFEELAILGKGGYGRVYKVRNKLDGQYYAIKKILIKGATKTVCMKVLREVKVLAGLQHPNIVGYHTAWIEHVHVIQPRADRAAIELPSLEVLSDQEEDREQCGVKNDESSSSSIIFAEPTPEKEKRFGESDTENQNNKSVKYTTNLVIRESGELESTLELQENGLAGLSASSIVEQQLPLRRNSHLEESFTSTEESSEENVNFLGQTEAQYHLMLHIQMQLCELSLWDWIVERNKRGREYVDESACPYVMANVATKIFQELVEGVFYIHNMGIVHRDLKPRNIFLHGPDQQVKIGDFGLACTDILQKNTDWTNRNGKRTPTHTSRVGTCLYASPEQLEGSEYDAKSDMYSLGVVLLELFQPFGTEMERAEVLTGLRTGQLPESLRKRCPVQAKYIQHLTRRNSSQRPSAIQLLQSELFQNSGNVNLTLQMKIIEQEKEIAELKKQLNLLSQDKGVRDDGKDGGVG
PROPERTY_NAME: pIC50
pIC50 here is simply -log10 of the concentration when that concentration is written in mol/L.

Record request: pIC50 value, item `COC(=O)N[C@@H](C)CNc1nccc(-c2cn(C(C)C)nc2-c2cc(Cl)cc(NS(C)(=O)=O)c2F)n1`
5.97
